Method description: Rheology of CASP hydrogels/solutions (strain sweep, shear recovery)
Assay type: physicochemical
Measurement context: 2% w/v hydrogels/solutions, 1% strain

{"columns": ["Substance", "storage modulus (G') at 1% strain"],
 "data": [
  ["KKKKSLSLSLSLSLSLKKKK (CASP-K4) [cationic amphiphilic self-assembling peptide]", "~430 Pa"],
  ["KKSLSLSLSLSLSLKK (CASP-K2) [cationic amphiphilic self-assembling peptide, previously reported as a multifunctional scaffold]", "~620 Pa"],
  ["Ac-KKKKKKSLSLSLSLSLSLKKKKKK-NH2 [CASP-K6]", "~210 Pa"],
  ["KKKKKKKKSLSLSLSLSLSLKKKKKKKK (CASP-K8) [cationic amphiphilic self-assembling peptide]", "~30 Pa"]
]}
